System: RPMI-8226
Method: NCI tumour cell line growth inhibition, 48 h
Activity calls are given as the source filed them. Cut-off read from the data, not from the text of the source: active = GI50 up to about 1.1 µM and inactive = higher.
Output constraint: value belongs to active, inactive

Use the examples below as a reference point.
Cc1nc2c(s/c(=N\N)n2-c2ccccc2)c(=O)[nH]1	inactive
COC(=O)c1cc(Cl)ccc1NC(=O)C1CCCCC1	inactive
Cc1nn(C(=O)c2ccncc2)c2c1C(c1ccccc1O)SC(=N)N2 (stereo not given)	inactive
CCN(CC)CCNc1n[n+]([O-])c2ccccc2[n+]1[O-]	inactive
CC1SC2=NC3=C(c4ccccc4C3=O)C(c3ccc(F)cc3)N2C1=O (stereo not given)	inactive
CN(C)CCCN1c2ccccc2CCc2cc([N+](=O)[O-])ccc21	inactive

// outcome(item) with item = "Nc1ccc2c(=O)cc(-c3cccs3)[nH]c2n1"
inactive

// outcome(item) with item = "O=c1c2ccccc2nc(-c2ccccc2)n1NC(=S)Nc1ccccc1"
inactive

// outcome(item) with item = "CC(=O)OC(C)(C)/C=C/C(=O)[C@](C)(O)[C@H]1[C@H](O)C[C@@]2(C)[C@@H]3CC=C4[C@@H](C=C(O)C(=O)C4(C)C)[C@]3(C)C(=O)C[C@]12C"
active

// outcome(item) with item = "COc1ccc(S(=O)(=O)NNS(C)(=O)=O)cc1OC"
inactive
